Test system: 945468-187-T-J2-PDC spheroids viability
protocolDescription: Anticancer human tumor 945468-187-T-J2-PDC patient-derived rectal carcinoma cell line growth inhibition [PI3K]
recordedConditions: curve of first compound; second compound 0.00316 µM; spheroids with HUVEC and MSC
IC50 for assorted compounds

Observe how each entry below is paired with its result.
compound | testedSystem | reported
C=CC(=O)N1CCN(c2nc(=O)n(-c3c(C)ccnc3C(C)C)c3nc(-c4c(O)cccc4F)c(F)cc23)C(C)C1 (stereo not drawn) + CC(Nc1ccc2c(c1)OCCn1cc(N3C(=O)OCC3C(F)F)nc1-2)C(N)=O | 945468-187-T-J2-PDC spheroids viability | > 10 µM
CNC(=O)c1ccc(N2C(=S)N(c3ccc(C#N)c(C(F)(F)F)c3)C(=O)C2(C)C)cc1F + COc1c(OCCCN2CCOCC2)ccc2c3n(c(=NC(=O)c4cnc(N)nc4)nc12)CCN3 | 945468-187-T-J2-PDC spheroids viability | > 10 µM

Moving on to another compound below.
Problem: What value of measured IC50 is listed for CC(=O)c1c(C)c2cnc(Nc3ccc(N4CCNCC4)cn3)nc2n(C2CCCC2)c1=O + CC(Nc1ccc2c(c1)OCCn1cc(N3C(=O)OCC3C(F)F)nc1-2)C(N)=O ?
Result: > 0.1 µM

---

Test system: 945468-187-T-J2-PDC spheroids viability
protocolDescription: Anticancer human tumor 945468-187-T-J2-PDC cell line growth inhibition [PI3K];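 also: spheroids exposed to compounds for seven days before reading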
recordedConditions: second compound 0.0316 µM; first compound 1 µM; stronger effect = lower value; spheroids with HUVEC and MSC
This section presents compounds with their documented viability, T/C values.
Give the number; % is assumed, so skip it.

For orientation, consider the following solved cases.
compound | testedSystem | viability, T/C (%)
Cn1nccc1Nc1nccc(-c2ccn(C(CO)c3ccc(Cl)c(F)c3)c(=O)c2)n1 (stereo not drawn) + Cc1nc(NC(=O)N2CCCC2C(N)=O)sc1-c1ccnc(C(C)(C)C(F)(F)F)c1 | 945468-187-T-J2-PDC spheroids viability | 79.3
CCCS(=O)(=O)Nc1ccc(F)c(C(=O)c2c[nH]c3ncc(-c4ccc(Cl)cc4)cc23)c1F + Cc1nc(NC(=O)N2CCCC2C(N)=O)sc1-c1ccnc(C(C)(C)C(F)(F)F)c1 | 945468-187-T-J2-PDC spheroids viability | 80.9

Problem: Find the recorded viability, T/C belonging to CC1(C)CCC(Nc2ncc(C(F)(F)F)c(-c3c[nH]c4c(P(C)(C)=O)c(C#N)ccc34)n2)CN1 (stereo not drawn) + Cc1nc(NC(=O)N2CCCC2C(N)=O)sc1-c1ccnc(C(C)(C)C(F)(F)F)c1 and report it.
Result: 62.9

---

// reported pIC50 per item
Test system: 945468-187-T-J2-PDC spheroids viability
protocolDescription: Anticancer human tumor 945468-187-T-J2-PDC cell line growth inhibition [PI3K];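 also: spheroids exposed to compounds for seven days before reading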
recordedConditions: curve of first compound; second compound 0.0316 µM; spheroids with HUVEC and MSC
pIC50: −log10 of the molar value.

Some compounds with known pIC50 results, for comparison:
compound | propertyLabel | reported
CC1(C)CCC(CN2CCN(c3ccc(C(=O)NS(=O)(=O)c4ccc(NCC5CCOCC5)c([N+](=O)[O-])c4)c(Oc4cnc5[nH]ccc5c4)c3)CC2)=C(c2ccc(Cl)cc2)C1 + COc1c(OCCCN2CCOCC2)ccc2c3n(c(=NC(=O)c4cnc(N)nc4)nc12)CCN3 | pIC50 | < 5.00
CNC(=O)c1ccc(N2C(=S)N(c3ccc(C#N)c(C(F)(F)F)c3)C(=O)C2(C)C)cc1F + Cc1nc(NC(=O)N2CCCC2C(N)=O)sc1-c1ccnc(C(C)(C)C(F)(F)F)c1 | pIC50 | < 5.00
Cn1nccc1Nc1nccc(-c2ccn(C(CO)c3ccc(Cl)c(F)c3)c(=O)c2)n1 (stereo unspecified) + CC(Nc1ncnc2nc[nH]c12)c1cc2cccc(Cl)c2c(=O)n1-c1ccccc1 | pIC50 | < 5.00
CC(=O)c1c(C)c2cnc(Nc3ccc(N4CCNCC4)cn3)nc2n(C2CCCC2)c1=O + COc1c(OCCCN2CCOCC2)ccc2c3n(c(=NC(=O)c4cnc(N)nc4)nc12)CCN3 | pIC50 | < 7.00

Problem: Tell me the measured pIC50 of Cn1nccc1Nc1nccc(-c2ccn(C(CO)c3ccc(Cl)c(F)c3)c(=O)c2)n1 (stereo unspecified) + CC(Nc1ccc2c(c1)OCCn1cc(N3C(=O)OCC3C(F)F)nc1-2)C(N)=O , please.
Result: < 5.00

Problem: Recorded pIC50 of Cn1ncnc1[C@H]1c2n[nH]c(=O)c3cc(F)cc(c23)N[C@@H]1c1ccc(F)cc1 + CC(Nc1ncnc2nc[nH]c12)c1cc2cccc(Cl)c2c(=O)n1-c1ccccc1 , please.
Result: < 7.00

Problem: Param item = CCCS(=O)(=O)Nc1ccc(F)c(C(=O)c2c[nH]c3ncc(-c4ccc(Cl)cc4)cc23)c1F + Cc1nc(NC(=O)N2CCCC2C(N)=O)sc1-c1ccnc(C(C)(C)C(F)(F)F)c1 ; retrieve measured pIC50.
Result: 5.36

Problem: What does the data say about its pIC50? Entry: CC(C)n1nc(-c2ccc3oc(N)nc3c2)c2c(N)ncnc21 + CC(Nc1ccc2c(c1)OCCn1cc(N3C(=O)OCC3C(F)F)nc1-2)C(N)=O
Result: < 7.00

Problem: What does the data say about its pIC50? Entry: CC1(C)CCC(Nc2ncc(C(F)(F)F)c(-c3c[nH]c4c(P(C)(C)=O)c(C#N)ccc34)n2)CN1 (stereo unspecified) + Cc1nc(NC(=O)N2CCCC2C(N)=O)sc1-c1ccnc(C(C)(C)C(F)(F)F)c1
Result: 5.58

Problem: Field request: pIC50 | item: CNC(=O)c1ccc(N2C(=S)N(c3ccc(C#N)c(C(F)(F)F)c3)C(=O)C2(C)C)cc1F + COc1c(OCCCN2CCOCC2)ccc2c3n(c(=NC(=O)c4cnc(N)nc4)nc12)CCN3
Result: < 5.00

Problem: Any idea what pIC50 was measured for CC(C)n1nc(-c2ccc3oc(N)nc3c2)c2c(N)ncnc21 + CC(Nc1ncnc2nc[nH]c12)c1cc2cccc(Cl)c2c(=O)n1-c1ccccc1 ?
Result: < 7.00

---

Items are presented alongside their recorded IC50.
Test system: 945468-187-T-J2-PDC spheroids viability
protocolDescription: Anticancer human tumor 945468-187-T-J2-PDC cell line growth inhibition [PI3K];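 also: spheroids exposed to compounds for seven days before reading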
recordedConditions: curve of first compound; second compound 0.316 µM; spheroids with HUVEC and MSC

compound | testedSystem | IC50
CNC(=O)c1ccc(N2C(=S)N(c3ccc(C#N)c(C(F)(F)F)c3)C(=O)C2(C)C)cc1F + COc1c(OCCCN2CCOCC2)ccc2c3n(c(=NC(=O)c4cnc(N)nc4)nc12)CCN3 | 945468-187-T-J2-PDC spheroids viability | < 0.0316 µM
C#Cc1c(F)ccc2cc(O)cc(-c3ncc4c(N5CC6CCC(C5)N6)nc(OCC56CCCN5CC(F)C6)nc4c3F)c12 (stereo unspecified) + CC(Nc1ccc2c(c1)OCCn1cc(N3C(=O)OCC3C(F)F)nc1-2)C(N)=O | 945468-187-T-J2-PDC spheroids viability | > 10 µM
CC1(C)CCC(Nc2ncc(C(F)(F)F)c(-c3c[nH]c4c(P(C)(C)=O)c(C#N)ccc34)n2)CN1 (stereo unspecified) + Cc1nc(NC(=O)N2CCCC2C(N)=O)sc1-c1ccnc(C(C)(C)C(F)(F)F)c1 | 945468-187-T-J2-PDC spheroids viability | > 10 µM
C#Cc1c(F)ccc2cc(O)cc(-c3ncc4c(N5CC6CCC(C5)N6)nc(OCC56CCCN5CC(F)C6)nc4c3F)c12 (stereo unspecified) + COc1c(OCCCN2CCOCC2)ccc2c3n(c(=NC(=O)c4cnc(N)nc4)nc12)CCN3 | 945468-187-T-J2-PDC spheroids viability | < 0.0316 µM
CCN1CCN(Cc2ccc(Nc3ncc(F)c(-c4cc(F)c5nc(C)n(C(C)C)c5c4)n3)nc2)CC1 + Cc1nc(NC(=O)N2CCCC2C(N)=O)sc1-c1ccnc(C(C)(C)C(F)(F)F)c1 | 945468-187-T-J2-PDC spheroids viability | > 1 µM

Problem: What value of IC50 has been reported for the following compound? CC(C)NCC(C(=O)N1CCN(c2ncnc3c2C(C)CC3O)CC1)c1ccc(Cl)cc1 (stereo unspecified) + Cc1nc(NC(=O)N2CCCC2C(N)=O)sc1-c1ccnc(C(C)(C)C(F)(F)F)c1
Result: > 10 µM

Problem: # input compound: CC1(C)CCC(Nc2ncc(C(F)(F)F)c(-c3c[nH]c4c(P(C)(C)=O)c(C#N)ccc34)n2)CN1 (stereo unspecified) + CC(Nc1ccc2c(c1)OCCn1cc(N3C(=O)OCC3C(F)F)nc1-2)C(N)=O ; wanted: its IC50
Result: 0.896 µM

Problem: Requested read-out: IC50. Entry: CNC(=O)c1ccc(N2C(=S)N(c3ccc(C#N)c(C(F)(F)F)c3)C(=O)C2(C)C)cc1F + Cc1nc(NC(=O)N2CCCC2C(N)=O)sc1-c1ccnc(C(C)(C)C(F)(F)F)c1
Result: > 10 µM

Problem: Sample CCCS(=O)(=O)Nc1ccc(F)c(C(=O)c2c[nH]c3ncc(-c4ccc(Cl)cc4)cc23)c1F + Cc1nc(NC(=O)N2CCCC2C(N)=O)sc1-c1ccnc(C(C)(C)C(F)(F)F)c1 — what was its IC50?
Result: 5.58 µM

Problem: Tell me the measured IC50 of Cn1ncc(Cl)c1-c1cc(C(=O)NC(CN)Cc2cccc(F)c2)sc1Cl (stereo unspecified) + Cc1nc(NC(=O)N2CCCC2C(N)=O)sc1-c1ccnc(C(C)(C)C(F)(F)F)c1 , please.
Result: > 10 µM

Problem: Recorded IC50 of Cn1ncc(Cl)c1-c1cc(C(=O)NC(CN)Cc2cccc(F)c2)sc1Cl (stereo unspecified) + COc1c(OCCCN2CCOCC2)ccc2c3n(c(=NC(=O)c4cnc(N)nc4)nc12)CCN3 , please.
Result: < 0.0316 µM
